The values you see were collected from ChEMBL document CHEMBL5665443.

Item-by-item account of inhibition
# target or test system: N-glycosylase/DNA lyase (Homo sapiens);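 note: OGG1 cleavage of a quenched duplex DNA oligonucleotide, coupled to APE1 for strand incision, read as fluorescence at 594 nm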
# experimental context: Compound Concentration 1.0 uM, Hit No
# Description: Inhibition of OGG1 by quantifying inhibition of OGG1-mediated cleavage and dissociation of quenched duplex DNA oligonucleotides, measured as fluorescence at 594 nm. To generate a functional strand incision and increase turn-over this assay is coupled to APE1.
Output spec: scalar in %, unitless text.

- smiles entry: "CN1C(=O)c2sccc2N(C)c2nc(Nc3ccc(S(N)(=O)=O)cc3)ncc21"
  target or test system: "N-glycosylase/DNA lyase (Homo sapiens)"
  inhibition [%]: 5.53

### Prompt Supply recorded inhibition for N#Cc1cnc(Nc2cc(NC[C@H]3CNCCO3)c(C(F)(F)F)cn2)cn1 here.
### Response 7.47

### Prompt Using the record for C[C@@H]1CCNC(=O)c2cc3ccc(C(=O)Nc4nc5ccccc5n4CCCN(C)C)cc3n21 , state its measured inhibition.
### Response 5.43

### Prompt Please report the measured inhibition for Cc1n[nH]c2ncc(C(=O)N3CCC[C@H]3c3ccc(Cl)cc3)cc12
### Response -6.69

---

# target or test system: DNA-3-methyladenine glycosylase (Homo sapiens)
# experimental context: Compound Concentration 10.0 uM, Hit No
# Description: Inhibition of MPG by quantifying inhibition of MPG-mediated cleavage and dissociation of quenched duplex DNA oligonucleotides, measured as fluorescence at 594 nm. To generate a functional strand incision and increase turn-over this assay is coupled to APE1.
value type: inhibition (%)
Answer format: numeric, % implied, no suffix.

Use the examples below as a reference point.
- molecule: "C[C@H](NC(=O)CNC(=O)c1cccc(Cl)c1)c1ccccc1"
  inhibition (%): 13.7
- molecule: "Cc1nnc2ccc(-c3cccc(C(F)(F)F)c3)nn12"
  inhibition (%): -6.43
- molecule: "CCOC(=O)C1=C(C)NC(C)=C(C(=O)OC)C1c1cccc([N+](=O)[O-])c1 (configuration not stated)"
  inhibition (%): 2.85

### Prompt Identify measured inhibition obtained with DNA-3-methyladenine glycosylase (Homo sapiens) for O=C1NCN(c2ccccc2)C12CCN(CCCOc1ccc(F)cc1)CC2 .
### Response -9.19

### Prompt Write down the reported inhibition (system: DNA-3-methyladenine glycosylase (Homo sapiens)) of Cc1nnc2n1-c1sc(CCC(=O)N3CCOCC3)cc1C(c1ccccc1Cl)=NC2
### Response -4.33

### Prompt Provide inhibition, recorded with DNA-3-methyladenine glycosylase (Homo sapiens), of O=C(COc1cccc2ccccc12)Nc1cc(Cl)ccc1C(=O)O
### Response 16.5

### Prompt For DNA-3-methyladenine glycosylase (Homo sapiens), give inhibition of the listed molecule: Cc1cccc(NC(=O)N[C@@H]2N=C(c3ccccc3)c3ccccc3N(C)C2=O)c1
### Response 17

### Prompt Find the measured inhibition of CC(C)(O)c1ccccc1CC[C@@H](SCC1(CC(=O)O)CC1)c1cccc(/C=C/c2ccc3ccc(Cl)cc3n2)c1 with DNA-3-methyladenine glycosylase (Homo sapiens) as test system.
### Response 53.9

### Prompt Find inhibition for Cc1ccc(/C(=C\CN2CCCC2)c2ccccn2)cc1 on DNA-3-methyladenine glycosylase (Homo sapiens) and write it down.
### Response -1.09

### Prompt Send back DNA-3-methyladenine glycosylase (Homo sapiens) inhibition of CNC1(C)C2CCC(C2)C1(C)C (configuration not stated) only.
### Response 6.27

---

# target or test system: UniProtKB Q9UIF7
# Sequence (whole entry): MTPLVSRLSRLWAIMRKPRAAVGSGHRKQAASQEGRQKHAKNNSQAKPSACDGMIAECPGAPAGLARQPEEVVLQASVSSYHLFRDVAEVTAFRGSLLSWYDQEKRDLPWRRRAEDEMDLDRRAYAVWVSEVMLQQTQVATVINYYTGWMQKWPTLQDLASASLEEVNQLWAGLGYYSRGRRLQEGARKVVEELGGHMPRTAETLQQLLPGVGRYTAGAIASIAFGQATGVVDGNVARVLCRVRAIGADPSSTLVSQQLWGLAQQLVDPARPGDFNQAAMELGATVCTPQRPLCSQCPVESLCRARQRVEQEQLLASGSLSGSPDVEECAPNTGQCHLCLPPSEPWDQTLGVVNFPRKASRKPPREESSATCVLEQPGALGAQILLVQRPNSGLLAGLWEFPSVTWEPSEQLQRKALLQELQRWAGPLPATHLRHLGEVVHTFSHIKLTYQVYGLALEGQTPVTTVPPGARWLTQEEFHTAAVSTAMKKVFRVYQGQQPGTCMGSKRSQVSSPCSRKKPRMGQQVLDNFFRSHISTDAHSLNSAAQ
# experimental context: Compound Concentration 1.0 uM, Hit No
# Description: Inhibition of MUTYH by quantifying inhibition of MUTYH-mediated cleavage and dissociation of quenched duplex DNA oligonucleotides, measured as fluorescence at 594 nm. To generate a functional strand incision and increase turn-over this assay is coupled to APE1.
value type: inhibition (%)
Answer in %, number only, no unit symbol.

- molecule: "N[C@@H]1CCCN(c2c(/C=C3\\SC(=O)NC3=O)cccc2-c2ccccc2)C1"
  inhibition / %: 3.22

### Prompt Specify reported inhibition for the molecule shown: COCCOc1nc(-c2ccc(Cl)nc2)nc2c1CN(C(=O)c1ncn3ccccc13)CC2
### Response -6.39

### Prompt Tell us which inhibition value is on record for CN(C)C/C=C/C(=O)Nc1cc2c(Nc3ccc(F)c(Cl)c3)ncnc2cc1O[C@H]1CCOC1
### Response 19.4

### Prompt Let me know recorded inhibition for O=C(Nc1ccc(-c2ccnc(Nc3ccc(N4CCOCC4)cc3)n2)cc1)[C@@H]1CCCN1 , thanks.
### Response 14.9

### Prompt Supply recorded inhibition for CN(c1ccnc(CNc2nc(Nc3ccc4c(c3)CC(=O)N4)ncc2C(F)(F)F)n1)S(C)(=O)=O here.
### Response 1.9

### Prompt For the molecule O=C(NOCC1CC1)c1ccc(F)c(F)c1Nc1ccc(I)cc1Cl , give its reported inhibition.
### Response 4.86
